assay: Part 2 relative bioavailability and food effect, plasma PK; format: in vivo, human; conditions: male, human, plasma, po, 200 mg, plasma, single oral 200 mg as tablet reference, fed; read-out: median Tmax
Item-by-item account of Tmax
assay_endpoint: Tmax (h)

compound: CC(C)NC(=O)COc1cccc(-c2nc(Nc3ccc4[nH]ncc4c3)c3ccccc3n2)c1 [Belumosudil, reference compound]
recorded_number: 3
//
compound: O=C(O)COc1cccc(-c2nc(Nc3ccc4[nH]ncc4c3)c3ccccc3n2)c1 [KD025m2]
recorded_number: 3
